Where do the numbers come from? From ChEMBL document CHEMBL1154471.

Activity values by entry
System: Raji
Assay: Inhibition of TPA-induced EBV-early antigen activation in human Raji cells assessed as EA activation at 100 molar ratio […] relative to TPA
Format: cell-based
Design: scale not given: the % may be the effect or the level left
Conditions: human gammaherpesvirus 4
Field: numeric (%). Do not append units.

Worked examples follow.
# COMPOUND STRING, ASSAY TARGET, UNIT STRING, Activity
measured = [
    ("C[C@H]([C@H](O)/C=C/C(C)(C)O)[C@H]1CC[C@@]2(C)C3=C(CC[C@]12C)[C@@]1(C)CC[C@H](O)C(C)(C)[C@@H]1CC3", "Raji", "%", 69.8),
    ("C[C@H]([C@H](O)/C=C/C(C)(C)O)[C@H]1CC[C@@]2(C)C3=CC[C@H]4C(C)(C)[C@@H](O)CC[C@]4(C)C3=CC[C@]12C", "Raji", "%", 67.3),
    ("CC1(C)CC[C@]2(C(=O)O)CC[C@]3(C)C(=CC[C@@H]4[C@@]5(C)CC[C@H](O)C(C)(C)[C@@H]5CC[C@]43C)[C@@H]2C1", "Raji", "%", 80),
]

Data request, read-out Activity, for CC(C)=CCC[C@@H](CO)[C@H]1CC[C@@]2(C)C3=C(CC[C@]12C)[C@@]1(C)CC[C@H](O)C(C)(C)[C@@H]1CC3
77.5

Param item: CC(C)=CCC[C@@H](C=O)[C@H]1CC[C@@]2(C)C3=C(CC[C@]12C)[C@@]1(C)CC[C@H](O)C(C)(C)[C@@H]1CC3
64
